# Test system: DLD-1
# Measurement Notes: NCI tumour cell line growth inhibition, 48 h
Activity calls are given as the source filed them. Rule as the data show it: active = GI50 up to about 1.1 µM and inactive = higher.
Outcomes: active, inactive

Molecule	Subject Of Test	Class Assignment
Nc1nc2c(ncn2CCCC(c2ccccc2)P(=O)(O)O)c(=O)[nH]1 (centres undefined)	DLD-1	inactive
O=[N+]([O-])c1cccc(S(=O)(=O)N/N=C/c2cc(I)cc([N+](=O)[O-])c2O)c1	DLD-1	inactive
NCCCCCC(CCN)SCC1OC(n2cnc3c(N)ncnc32)C(O)C1O (centres undefined)	DLD-1	inactive
C(=N\Nc1ccccc1)/c1nc2ccccc2nc1/C=N/Nc1ccccc1	DLD-1	inactive
CO[C@H](C(=O)[C@@H](O)[C@@H](C)O)[C@@H]1Cc2cc3cc(OC4CC(OC5CC(O)C(O)C(C)O5)C(O)C(C)O4)c(C)c(O)c3c(O)c2C(=O)[C@H]1OC1CC(OC2CC(OC3CC(C)(O)C(O)C(C)O3)C(O)C(C)O2)C(O)C(C)O1 (some centres undefined)	DLD-1	active
C=Cc1c(-c2ccccc2)cnc2[nH]c3ccccc3c12	DLD-1	inactive
C[Si](C)(c1ccccc1)C1CC(=O)CC(=O)C1	DLD-1	inactive
CCOc1ccc(/N=N/c2ccc3oc(=O)c(/C(C)=N/NC(=O)CC(=O)Nc4cccc(OC)c4)cc3c2)cc1	DLD-1	inactive
CC1(C)OCC(CO)(Nc2nc(N3CC3)nc(N3CC3)n2)CO1	DLD-1	inactive
O=c1c(-c2ccccc2)c2oc(c1-c1ccccc1)CSCc1cccc(c1)CSC2	DLD-1	inactive
O=C1C=CC(=O)c2cc(Sc3ccccc3)c(=O)c(Sc3ccccc3)cc21	DLD-1	inactive
C[C@]12CCNC(=O)C=C1CC[C@@H]1C2CC[C@@]2(C)C1CC[C@@H]2OC(=O)COc1ccc(N(CCCl)CCCl)cc1 (some centres undefined)	DLD-1	inactive
CCCCCC/C(CC(=O)CCC(=O)NCCc1ccccc1)=N\Nc1ccc([N+](=O)[O-])cc1[N+](=O)[O-]	DLD-1	inactive
COc1cccc(C2C(C(=O)Nc3cc(=O)n(C)c(=O)n3C)=C(C)NC(C)=C2C(=O)Nc2cc(=O)n(C)c(=O)n2C)c1O	DLD-1	inactive
N#Cc1ccccc1NC(=O)C(=O)C(C(=O)c1ccncc1)C1OC(=O)c2ccccc21 (centres undefined)	DLD-1	inactive
N#CC(C#N)=C1SCC(=O)CS1	DLD-1	inactive
Cc1[nH]c(=O)[nH]c(=O)c1/C=C/C(=O)NC(CO)CC(C)C (centres undefined)	DLD-1	inactive
CCOC(=O)/C(C#N)=C\C=C1/C=CN=C2NCCN21	DLD-1	inactive
CC(/C(=N/NC(=O)C(N)=O)c1c(Cl)ccc(Cl)c1O)C1(O)C(=O)Nc2ccccc21 (centres undefined)	DLD-1	inactive
COC(=O)/C(C#N)=C1\CCC(C(=O)OC)N1C (centres undefined)	DLD-1	inactive
CCOP(=O)(Cc1ccc(CP(=O)(OCC)OCC)n1C)OCC	DLD-1	inactive
Cn1c2ccccc2c(=O)c2c(O)cc3c(c21)CC(C1(C)CO1)O3 (centres undefined)	DLD-1	inactive
COc1ccc(-c2nc3c(nc2-c2ccc(OC)cc2)N(C)S(=O)(=O)N=C3N)cc1	DLD-1	inactive
c1ccc([P+](Cc2csnn2)(c2ccccc2)c2ccccc2)cc1	DLD-1	inactive

---

# Tested on: T47D
# Measurement Notes: NCI tumour cell line growth inhibition, 48 h
The source made the active and inactive calls. Rule as the data show it: active = GI50 up to about 1.1 µM and inactive = higher.
Classes used: class 1 for active, class 0 for inactive

Molecule	Class Assignment
Cn1c2ccccc2c(=O)c2c(O)cc3c(c21)CC(C1(C)CO1)O3 (stereo not given)	class 0
c1csc(-c2ccc(-c3ccsc3)s2)c1	class 0
CC(C)CC(O)P(=O)(O)O.NC1CCCCC1 (stereo not given)	class 0
C=CCN(c1cc(OC)c(NC(C)=O)cc1[N+](=O)[O-])S(C)(=O)=O	class 0
COc1ccc2c(c1)c1c3c(ccc4ncn2c43)N(CCO)CCN=1	class 1

# credit: ChEMBL document CHEMBL1201862
